Target: Ubiquitin-conjugating enzyme E2 N (Homo sapiens);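 also: Dose-response confirmation in a TR-FRET assay detecting UBC13-driven polyubiquitin chain formation, inhibition measured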
Sequence (P61088 whole entry): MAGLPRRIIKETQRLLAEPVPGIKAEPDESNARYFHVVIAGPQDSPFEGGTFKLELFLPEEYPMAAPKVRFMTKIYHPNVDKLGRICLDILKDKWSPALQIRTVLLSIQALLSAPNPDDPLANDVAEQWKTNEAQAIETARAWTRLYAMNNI
Assay type: functional
Active and inactive are the calls of the source.
Classes used: t for active, f for inactive

compound | assignedClass
Cn1nc(N)c2c(-c3ccccc3)c(C#N)c(N)nc21 | f
COc1ccccc1NC(=O)CN1CCC(n2c(C)nc3cc(F)ccc32)CC1 | t
O=C(c1cccc(S(=O)(=O)N2CCCC2)c1)N1CCCC(C(F)(F)F)C1 (centres undefined) | t
O=C(NCC1CCN(Cc2ccc(Cl)cc2)CC1)C1CCCN(c2ncnc3c2nc2n3CCCCC2)C1 (centres undefined) | t
COc1cc2nc(N3CCNCC3)nc(N)c2cc1OC | t
Cc1cc(N2CCN(C)CC2)nc2ccc(NC(=S)N3CCN(c4ccc(F)cc4)CC3)cc12 | f
CC1CCC(C(C)C)C(OC(=O)Cn2c(-c3ccc(Br)cc3)[n+](C)c3ccccc32)C1 (centres undefined) | f
NC[C@H](Cc1ccccc1)NCCc1cc(C(F)(F)F)cc(C(F)(F)F)c1 | f
COc1ccc(C[C@H]2CN3C(=NC[C@H]3Cc3ccccc3)N2CCNC(=O)c2ccc(C)c(Br)c2)cc1 | f

Reference source: ChEMBL document CHEMBL1201862
